Test system: PANC-1 (prancreatic carcinoma) cell line
Assay: CellTiter-Glo luminescent cell viability assay, PANC-1
Assay type: cell-based
Conditions: Homo sapiens; PANC-1, 10 μM, 72 h, % of signal of diluent-treated cultures
Experimental: All cell lines were maintained in medium containing 1% penicillin-streptomycin (Dutscher, P06-07100) and 10% Fetal Bovine Serum (Hyclone Dutscher, RZK35922) cultured at 37° C. with 5% CO2. […] Cell viability was measured using the CellTiter-Glo® luminescent cell viability assay as described by the manufacturer (Promega, Ref G7571) using an Infinite F200Pro luminometer (Tecan). […]
recorded.metric: viability at 10 µM (%)

1) CN(C)C1CCN(c2c(C#N)c(NCc3ccc(Cl)cc3)nc3ccccc23)CC1 [Compound 3184CN]
24.1
2) CN1CCC(NC2CCN(c3c(C#N)c(NCc4ccc(Cl)cc4)nc4ccccc34)CC2)CC1 [Compound 3182CN]
0.5
3) CC(C)(C)OC(=O)NC1CCCN(c2c(C#N)c(NCc3ccc(Cl)cc3)nc3ccccc23)C1 (centres unmarked) [Compound 154CN]
99
4) CC(C)(C)NC1CCN(c2c(C#N)c(NCc3ccc4c(c3)OCO4)nc3ccccc23)CC1 [Compound 3300CN]
27.4
5) Cc1ccc2c(N3CCC(NC(C)(C)C)CC3)c(C#N)c(NCc3ccc(Cl)cc3)nc2c1 [Compound 416CN]
0.7
6) CC(C)(C)NC1CCN(c2c(C#N)c(NCc3ccncc3)nc3ccccc23)CC1 [Compound 3306CN]
93.3
7) CN(C)C1CCN(c2c(C#N)c(NCc3ccc(Cl)cc3)nc3ccccc23)C1 (centres unmarked) [Compound 3202CN]
81.5
8) CC(C)(C)NC1CCN(c2c(C#N)c(Nc3cnccn3)nc3ccccc23)CC1 [Compound 3284CN]
69.4

====

test system: HepG2 (hepatocellular carcinoma) cell line; assay: CellTiter-Glo luminescent cell viability assay, HepG2; format: cell-based, human; conditions: Homo sapiens, HepG2; HepG, compound at 4 μM, 72 h
The threshold is 40%. Values of viability at 4 µM beneath it are tagged 1.0; values meeting or exceeding it are tagged 0.0.

1) CC(C)(C)NC1CCN(c2c(C#N)c(Nc3cccc(F)c3)nc3ccccc23)CC1 [Compound 3262CN]
0.0
2) N#Cc1c(NCc2ccc(Cl)cc2)nc2ccccc2c1N1CCC(N2CCCC2)CC1 [Compound 200CN]
0.0
3) CC(C)(C)OC(=O)NC1CCCN(c2c(C#N)c(NCc3ccc(Cl)cc3)nc3ccccc23)C1 (centres unmarked) [Compound 154CN]
0.0
4) N#Cc1c(NCc2ccc(Cl)cc2)nc2ccccc2c1N1CCCC(NC2CCCC2)C1 (centres unmarked) [Compound 162CN]
1.0
5) N#Cc1c(NCc2ccc(Cl)cc2)nc2ccccc2c1N1CCC(Oc2ccccc2)CC1 [Compound 2940CN]
0.0
6) Cc1cc(C)nc(Nc2ccc(Nc3nc4ccccc4c(N4CCC(NC(C)(C)C)CC4)c3C#N)cc2)n1 [Compound 3276CN]
1.0
7) N#Cc1c(NCc2ccc(Cl)cc2)nc2ccccc2c1N1CCCC(N2CCCC2)C1 (centres unmarked) [Compound 176CN]
0.0
8) Cc1cc(Nc2nc3ccccc3c(N3CCC(NC(C)(C)C)CC3)c2C#N)ccc1Nc1nccc(C(F)(F)F)n1 [Compound 534CN]
1.0

====

test system: A375 (malignant melanoma) cell line; test: CellTiter-Glo luminescent cell viability assay, A375; format: cell-based, human; details: Homo sapiens, A-375; A375, compound at 10 μM, 72 h
recorded.metric: viability at 10 µM (%)

1. N#Cc1c(NCc2ccc(Cl)cc2)nc2ccccc2c1N1CCC(N2CCCC2)CC1 [Compound 200CN]
0.4
2. Cc1ccc(OC2CCN(c3c(C#N)c(NCc4ccc(Cl)cc4)nc4ccccc34)C2)cc1 (centres unmarked) [Compound 3332CN]
103
3. CC(C)(C)NC1CCN(c2c(C#N)c(Nc3cnccn3)nc3ccccc23)CC1 [Compound 3284CN]
64.9
4. N#Cc1c(NCc2ccc(Cl)cc2)nc2ccccc2c1N1CCCC(NC2CCCC2)C1 (centres unmarked) [Compound 162CN]
0.2
5. CN1CCC(NC2CCN(c3c(C#N)c(NCc4ccc(Cl)cc4)nc4ccccc34)CC2)CC1 [Compound 3182CN]
0.4
6. N#Cc1c(NCc2ccc(Cl)cc2)nc2ccccc2c1N1CCC(NC2CCCC2)CC1 [Compound 3178CN]
0.5
7. CC(C)(C)NC1CCN(c2c(C#N)c(NCc3ccc4c(c3)OCO4)nc3ccccc23)CC1 [Compound 3300CN]
0.4
8. CC(C)(C)NC1CCN(c2c(C#N)c(NCc3ccc(Cl)cc3)nc3ccccc23)CC1 [Compound 352CN]
0.5

====

tested on: HCT-116 (colorectal carcinoma) cell line; assay: CellTiter-Glo luminescent cell viability assay, HCT-116; format: cell-based, human; conditions: Homo sapiens; HCT-116, compound at 10 μM, 72 h
recorded.metric: viability at 10 µM

1. CN(C)C1CCCN(c2c(C#N)c(NCc3ccc(Cl)cc3)nc3ccccc23)C1 (centres unmarked) [Compound 3164CN]
38.4%
2. Cc1cc2c(C)nc(Nc3ccc(Nc4nc5ccccc5c(N5CCC(NC(C)(C)C)CC5)c4C#N)cc3C)nc2o1 [Compound 512CN]
0.2%
3. Cc1ccc(Nc2nc3ccccc3c(N3CCC(NC(C)(C)C)CC3)c2C#N)cc1 [Compound 3248CN]
0.5%
4. CNC1CCN(c2c(C#N)c(NCc3ccc(Cl)cc3)nc3ccccc23)CC1 [Compound 3172CN]
0.1%
5. CN(C)C1CCN(c2c(C#N)c(NCc3ccc(Cl)cc3)nc3ccccc23)CC1 [Compound 3184CN]
0.5%
6. CN1CCC(NC2CCCN(c3c(C#N)c(NCc4ccc(Cl)cc4)nc4ccccc34)C2)CC1 (centres unmarked) [Compound 3162CN]
0.2%
7. Cc1cc(Nc2nc3ccccc3c(N3CCC(NC(C)(C)C)CC3)c2C#N)ccc1Nc1nccc(C(F)(F)F)n1 [Compound 534CN]
0.2%
8. N#Cc1c(NCc2ccc(Cl)cc2)nc2ccccc2c1N1CCC(N)C1 (centres unmarked) [Compound 3190CN]
0.4%
9. N#Cc1c(NCc2ccc(Cl)cc2)nc2ccccc2c1N1CCCC(Oc2ccccc2)C1 (centres unmarked) [Compound 3206CN]
91.2%
10. COc1ccc(Nc2nc3ccccc3c(N3CCC(NC(C)(C)C)CC3)c2C#N)cc1 [Compound 3252CN]
0.2%
11. COc1ccc(OC2CCN(c3c(C#N)c(NCc4ccc(Cl)cc4)nc4ccccc34)C2)cc1 (centres unmarked) [Compound 3334CN]
88.6%
12. CC(C)(C)NC1CCN(c2c(C#N)c(Nc3ccncn3)nc3ccccc23)CC1 [Compound 3282CN]
39.8%
13. CC(C)(C)NC1CCN(c2c(C#N)c(NCc3ccc(Cl)cc3)nc3ccccc23)CC1 [Compound 352CN]
0.5%
14. CN(C)C1CCN(c2c(C#N)c(NCc3ccc(Cl)cc3)nc3ccccc23)C1 (centres unmarked) [Compound 3202CN]
62.4%
15. CC(C)NC1CCCN(c2c(C#N)c(NCc3ccc(Cl)cc3)nc3ccccc23)C1 (centres unmarked) [Compound 3160CN]
0.4%
16. Cc1cccc2c(N3CCC(NC(C)(C)C)CC3)c(C#N)c(NCc3ccc(Cl)cc3)nc12 [Compound 414CN]
0.3%
17. N#Cc1c(NCc2ccc(Cl)cc2)nc2ccccc2c1N1CCC(N)CC1 [Compound 3170CN]
0.2%

====

Recorded viability at 10 µM for the following compounds
system: HCT-116 (colorectal carcinoma) cell line; assay: CellTiter-Glo luminescent cell viability assay, HCT-116; type: cell-based, human; conditions: Homo sapiens; HCT-116, compound at 10 μM, 72 h
Structures can show the parent of a compound that is named as a salt.
recorded.metric: viability at 10 µM (%)

1. CC(C)NC1CCN(c2c(C#N)c(NCc3ccc(Cl)cc3)nc3ccccc23)CC1 [Compound 3174CN]
0.1
2. CC(C)(C)NC1CCN(c2c(C#N)c(NCc3ccc(C(F)(F)F)cc3)nc3ccccc23)CC1 [Compound 3292CN]
0.1
3. CC(C)(C)NC1CCN(c2c(C#N)c(Nc3ccc(F)cc3)nc3ccccc23)CC1 [Compound 3260CN]
0.3
4. CC(C)(C)NC1CCN(c2c(C#N)c(NCc3ccccn3)nc3ccccc23)CC1 [Compound 3308CN]
32.9
5. CCN(Cc1ccc(Cl)cc1)c1cc(N2CCC(NC(C)(C)C)CC2)c2ccccc2n1 [Compound 214, hydrochloride]
0.3
6. Cc1cc(Nc2nc3ccccc3c(N3CCC(NC(C)(C)C)CC3)c2C#N)ccc1Nc1nccc(-c2cccnc2)n1 [Compound 3131CN]
0.1
7. CC(C)(C)NC1CCN(c2c(C#N)c(Nc3ccccn3)nc3ccccc23)CC1 [Compound 3278CN]
7.2
8. CC(C)(C)NC1CCN(c2c(C#N)c(NCc3ccccc3)nc3ccccc23)CC1 [Compound 3286CN]
0.1
